system: Streptococcus agalactiae; assay: Antibacterial activity against Streptococcus agalactiae group B clinical isolate by broth microdilution method; format: functional
readout: MIC50 (µg/mL)
// return numeric value only (unit: µg/mL, not printed)

Consider the worked cases shown below.
[
  {
    "molecule": "CN[C@H](CC(C)C)C(=O)N[C@H]1C(=O)N[C@@H](CC(N)=O)C(=O)N[C@H]2C(=O)N[C@H]3C(=O)N[C@H](C(=O)N[C@H](C(=O)O)c4cc(O)cc(O)c4-c4cc3ccc4O)[C@H](O)c3ccc(c(Cl)c3)Oc3cc2cc(c3O[C@@H]2O[C@H](CO)[C@@H](O)[C@H](O)[C@H]2O[C@H]2C[C@](C)(N)[C@H](O)[C@H](C)O2)Oc2ccc(cc2Cl)[C@H]1O [VANCOMYCIN]",
    "readout": "MIC50",
    "meas value": 0.25
  },
  {
    "molecule": "CC[C@H]1OC(=O)[C@H](C)[C@@H](O[C@H]2C[C@@](C)(OC)[C@@H](O)[C@H](C)O2)[C@H](C)[C@@H](O[C@@H]2O[C@H](C)C[C@H](N(C)C)[C@H]2O)[C@](C)(O)C[C@@H](C)C(=O)[C@H](C)[C@@H](O)[C@]1(C)O [ERYTHROMYCIN]",
    "readout": "MIC50",
    "meas value": 0.06
  }
]

Now, please, on to the next molecule.
Inquiry: Recorded MIC50 of CCCCCCCCCCNCCN[C@@]1(C)C[C@H](O[C@H]2[C@H](Oc3c4cc5cc3Oc3ccc(cc3Cl)[C@@H](O)[C@@H](NC(=O)[C@@H](CC(C)C)NC)C(=O)N[C@@H](CC(N)=O)C(=O)N[C@H]5C(=O)N[C@H]3C(=O)N[C@H](C(=O)N[C@H](C(=O)O)c5cc(O)c(CNCP(=O)(O)O)c(O)c5-c5cc3ccc5O)[C@H](O)c3ccc(c(Cl)c3)O4)O[C@H](CO)[C@@H](O)[C@@H]2O)O[C@@H](C)[C@H]1O [TELAVANCIN] , please.
Reply text: 0.06

* * *

tested on: Staphylococcus epidermidis; test: Antibacterial activity against methicillin resistant Staphylococcus epidermidis clinical isolate assessed as susceptibility level by broth microdilution method; assay type: functional
readout: Activity (%)
// return numeric value only (unit: %, not printed)

Consider the worked cases shown below.
[
  {
    "smiles string": "CC[C@H]1OC(=O)[C@H](C)[C@@H](O[C@H]2C[C@@](C)(OC)[C@@H](O)[C@H](C)O2)[C@H](C)[C@@H](O[C@@H]2O[C@H](C)C[C@H](N(C)C)[C@H]2O)[C@](C)(O)C[C@@H](C)C(=O)[C@H](C)[C@@H](O)[C@]1(C)O",
    "target entity": "Staphylococcus epidermidis",
    "Activity [%]": 15
  },
  {
    "smiles string": "CC(=O)NC[C@H]1CN(c2ccc(N3CCOCC3)c(F)c2)C(=O)O1",
    "target entity": "Staphylococcus epidermidis",
    "Activity [%]": 100
  },
  {
    "smiles string": "CC[C@H]1OC(=O)[C@H](C)C(=O)[C@H](C)[C@@H](O[C@@H]2O[C@H](C)C[C@H](N(C)C)[C@H]2O)[C@](C)(OC)C[C@@H](C)C(=O)[C@H](C)[C@H]2N(CCCCn3cnc(-c4cccnc4)c3)C(=O)O[C@]12C",
    "target entity": "Staphylococcus epidermidis",
    "Activity [%]": 43
  },
  {
    "smiles string": "CCCCCCCCCC(=O)N[C@@H](Cc1c[nH]c2ccccc12)C(=O)N[C@H](CC(N)=O)C(=O)N[C@@H](CC(=O)O)C(=O)N[C@@H]1C(=O)NCC(=O)N[C@@H](CCCN)C(=O)N[C@@H](CC(=O)O)C(=O)N[C@H](C)C(=O)N[C@@H](CC(=O)O)C(=O)NCC(=O)N[C@H](CO)C(=O)N[C@@H]([C@H](C)CC(=O)O)C(=O)N[C@@H](CC(=O)c2ccccc2N)C(=O)O[C@@H]1C",
    "target entity": "Staphylococcus epidermidis",
    "Activity [%]": 100
  }
]

Now, please, on to the next compound.
Inquiry: Recorded Activity of `CN[C@H](CC(C)C)C(=O)N[C@H]1C(=O)N[C@@H](CC(N)=O)C(=O)N[C@H]2C(=O)N[C@H]3C(=O)N[C@H](C(=O)N[C@H](C(=O)O)c4cc(O)cc(O)c4-c4cc3ccc4O)[C@H](O)c3ccc(c(Cl)c3)Oc3cc2cc(c3O[C@@H]2O[C@H](CO)[C@@H](O)[C@H](O)[C@H]2O[C@H]2C[C@](C)(N)[C@H](O)[C@H](C)O2)Oc2ccc(cc2Cl)[C@H]1O` , please.
Reply text: 100
